Below: a set of entries, each annotated with reported Kd.
Biological target: eTau 4 (FIG. 17)
Assay: relative binding affinity, method not named (Table 4); fifth column, headed eTau 4
Note: unit nM is implicit; provide only the numeric part.

Check out these entries, answers already filled in.
VH1/Vk1 (antibody, V domains shown, member of the group m7; also called humanized IPN002 variant VH1/Vk1) VH: EVHLVESGGALVKPGGSLRLSCAASGFSFSKYGMSWVRQAPGKGLEWVATISSSGSRTYYPDSVKGRFTISRDNAKNTLYLQMSSLKSEDTAMYYCSISWDGAMDYWGQGTSVTVSS VL: DVLMTQSPLSLPVTLGQPASISCKSSQSIVHSNGNTYLEWYLQKPGQSPQLLVYKVSNRFSGVPDRFSGSGSGTDFTLKISRVEAEDVGTYYCFQGSLVPWAFGGGTKVEIK = 0.358
VH3/Vk3 (antibody, V domains shown, member of the group m7; also called humanized IPN002 variant VH3/Vk3) VH: EVQLVESGGALVKPGGSLRLSCAASGFSFSKYGMSWVRQAPGKGLEWVATISSSGSRTYYPDSVKGRFTISRDNAKNTLYLQMNSLRAEDTAMYYCSISWDGAMDYWGQGTTVTVSS VL: DVVMTQSPLSLPVTLGQPASISCKSSQSIVHSNGNTYLEWYLQKPGQSPQLLVYKVSNRFSGVPDRFSGSGSGTDFTLKISRVEAEDVGVYYCFQGSLVPWAFGGGTKVEIK = 0.469
VH2/Vk4 (antibody, V domains shown, member of the group m7; also called humanized IPN002 variant VH2/Vk4) VH: EVHLVESGGALVKPGGSLRLSCAASGFSFSKYGMSWVRQAPGKGLEWVATISSSGSRTYYPDSVKGRFTISRDNAKNTLYLQMNSLRAEDTAMYYCSISWDGAMDYWGQGTTVTVSS VL: DVVMTQSPLSLPVTLGQPASISCKSSQSIVHSNGNTYLEWYLQKPGQSPQLLIYKVSNRFSGVPDRFSGSGSGTDFTLKISRVEAEDVGVYYCFQGSLVPWAFGGGTKVEIK = 0.418

Looking for the measured Kd of VH4/Vk2 (antibody, V domains shown, member of the group m7; also called humanized IPN002 variant VH4/Vk2) VH: EVQLVESGGALVKPGGSLRLSCAASGFSFSKYGMSWVRQAPGKGLEWVATISSSGSRTYYPDSVKGRFTISRDNAKNTLYLQMNSLRAEDTAMYYCAISWDGAMDYWGQGTTVTVSS VL: DVVMTQSPLSLPVTLGQPASISCKSSQSIVHSNGNTYLEWYLQKPGQSPQLLVYKVSNRFSGVPDRFSGSGSGTDFTLKISRVEAEDVGTYYCFQGSLVPWAFGGGTKVEIK , can you help?
0.291

This collection of values is drawn from patent US20160122421A1.
